# targetDesc: ADP-ribosyl cyclase/cyclic ADP-ribose hydrolase [1-303] (Blood fluke)
# Construct: 1-303
# assayProcedure: NAD glycohydrolase assay
# experimentalContext: pH 7.4; 37 °C
Listed below: IC50 values for each entry.
Field: numeric (µM). Do not append units.

Sample records with IC50:
[[record]]
compound = "O=C(Nc1nc(=O)c2ccccc2s1)c1ccco1"
quantity = "IC50"
readoutunit = "µM"
measurement = 2.2

[[record]]
compound = "Cc1occc1C(=O)N/N=C/c1ccc(O)c(O)c1"
quantity = "IC50"
readoutunit = "µM"
measurement = 88

[[record]]
compound = "Cc1occc1C(=O)N/N=C/c1cc(Cl)ccc1O"
quantity = "IC50"
readoutunit = "µM"
measurement = 0.033


Read the next record carefully.
Input line: Suppose we examine the compound Cc1ccc2c(c1)C[N]1NC(C3CCOC3C)[O][Zn+]1[O]2 (centres undefined) ; what IC50 value has been reported?
Output line: 0.33
